# TARGET_OR_TEST_SYSTEM: Cannabinoid receptor 1 (Homo sapiens, UniProt P21554)
# Sequence (P21554 whole entry): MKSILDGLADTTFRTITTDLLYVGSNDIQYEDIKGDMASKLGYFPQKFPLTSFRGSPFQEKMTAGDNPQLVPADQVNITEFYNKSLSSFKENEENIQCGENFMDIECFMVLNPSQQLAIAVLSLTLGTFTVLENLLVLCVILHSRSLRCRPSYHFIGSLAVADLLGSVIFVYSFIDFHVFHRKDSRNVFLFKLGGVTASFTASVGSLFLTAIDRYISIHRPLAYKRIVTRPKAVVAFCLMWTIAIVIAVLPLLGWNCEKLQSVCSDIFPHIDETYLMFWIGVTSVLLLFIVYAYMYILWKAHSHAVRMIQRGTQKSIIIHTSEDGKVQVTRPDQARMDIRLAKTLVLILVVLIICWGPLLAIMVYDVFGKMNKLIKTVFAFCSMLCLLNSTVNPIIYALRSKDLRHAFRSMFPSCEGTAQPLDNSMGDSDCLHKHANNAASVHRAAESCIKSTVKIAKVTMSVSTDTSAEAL
# PROTOCOL_TEXT: Antagonist activity at human brain CB1 receptor by calcium mobilization assay
# Assay type: functional
# SETTINGS: read-out: pA2 (converted)
# maps each entry to its Kb
All answers are understood in nM, so give the number only.

SMILES_ENTRY	TARGET_OR_TEST_SYSTEM	Kb [nM]
Cc1c(C(=O)NCCCCCN(C)CCCCCNC(=O)c2nn(-c3ccc(Cl)cc3Cl)c(-c3ccc(Cl)cc3)c2C)nn(-c2ccc(Cl)cc2Cl)c1-c1ccc(Cl)cc1	Cannabinoid receptor 1 (Homo sapiens, UniProt P21554)	11
Cc1c(C(=O)NCCNCCNC(=O)c2nn(-c3ccc(Cl)cc3Cl)c(-c3ccc(Cl)cc3)c2C)nn(-c2ccc(Cl)cc2Cl)c1-c1ccc(Cl)cc1	Cannabinoid receptor 1 (Homo sapiens, UniProt P21554)	83.2

Now consider a different compound.
Qu. Recorded Kb of Cc1c(C(=O)NCCCCCCCCCCCN(C)CCCCCCCCCCCNC(=O)c2nn(-c3ccc(Cl)cc3Cl)c(-c3ccc(Cl)cc3)c2C)nn(-c2ccc(Cl)cc2Cl)c1-c1ccc(Cl)cc1 , please.
Ans. 501

These entries and their values trace back to ChEMBL document CHEMBL1268814.
